These data points were gathered from ChEMBL document CHEMBL1128298.

Target: 5-hydroxytryptamine receptor 1A (Mus musculus)
Sequence (Q64264 whole entry): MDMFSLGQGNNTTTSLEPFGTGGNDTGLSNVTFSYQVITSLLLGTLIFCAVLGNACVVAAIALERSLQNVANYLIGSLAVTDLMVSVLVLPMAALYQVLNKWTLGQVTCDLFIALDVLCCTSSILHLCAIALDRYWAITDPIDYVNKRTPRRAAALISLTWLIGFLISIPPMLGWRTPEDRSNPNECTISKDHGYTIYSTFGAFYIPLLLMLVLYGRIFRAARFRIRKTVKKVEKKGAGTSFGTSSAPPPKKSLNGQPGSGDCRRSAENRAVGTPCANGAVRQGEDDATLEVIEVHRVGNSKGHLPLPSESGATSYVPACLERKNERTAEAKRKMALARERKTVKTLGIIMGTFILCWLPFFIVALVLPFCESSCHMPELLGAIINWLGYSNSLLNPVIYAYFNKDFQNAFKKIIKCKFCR
Assay Summary: In vitro binding affinity towards 5-hydroxytryptamine 1A receptor by using [3H]-8-OH-DPAT as radioligand
Readout Type: Ki (nM)
Please reply with the bare figure in nM and do not write the unit itself.

Worked examples, 3 compounds total:
* CCCNC1CCc2cccc(OS(=O)(=O)C(F)(F)F)c2C1 (racemic) | 2.8
* CCCN(CCC)[C@@H]1CCc2cccc(O)c2C1 | 0.5
* CCCN[C@@H]1CCc2ccc(OS(=O)(=O)C(F)(F)F)cc2C1.Cl | 222

Field Ki (entry CCCN(CCC)C1CCc2cccc(OS(=O)(=O)C(F)(F)F)c2C1 (racemic) ) reads 0.8
